# measured.on: NaV1.7 (Homo sapiens (Human), UniProt Q15858)
# Sequence (Q15858 whole entry): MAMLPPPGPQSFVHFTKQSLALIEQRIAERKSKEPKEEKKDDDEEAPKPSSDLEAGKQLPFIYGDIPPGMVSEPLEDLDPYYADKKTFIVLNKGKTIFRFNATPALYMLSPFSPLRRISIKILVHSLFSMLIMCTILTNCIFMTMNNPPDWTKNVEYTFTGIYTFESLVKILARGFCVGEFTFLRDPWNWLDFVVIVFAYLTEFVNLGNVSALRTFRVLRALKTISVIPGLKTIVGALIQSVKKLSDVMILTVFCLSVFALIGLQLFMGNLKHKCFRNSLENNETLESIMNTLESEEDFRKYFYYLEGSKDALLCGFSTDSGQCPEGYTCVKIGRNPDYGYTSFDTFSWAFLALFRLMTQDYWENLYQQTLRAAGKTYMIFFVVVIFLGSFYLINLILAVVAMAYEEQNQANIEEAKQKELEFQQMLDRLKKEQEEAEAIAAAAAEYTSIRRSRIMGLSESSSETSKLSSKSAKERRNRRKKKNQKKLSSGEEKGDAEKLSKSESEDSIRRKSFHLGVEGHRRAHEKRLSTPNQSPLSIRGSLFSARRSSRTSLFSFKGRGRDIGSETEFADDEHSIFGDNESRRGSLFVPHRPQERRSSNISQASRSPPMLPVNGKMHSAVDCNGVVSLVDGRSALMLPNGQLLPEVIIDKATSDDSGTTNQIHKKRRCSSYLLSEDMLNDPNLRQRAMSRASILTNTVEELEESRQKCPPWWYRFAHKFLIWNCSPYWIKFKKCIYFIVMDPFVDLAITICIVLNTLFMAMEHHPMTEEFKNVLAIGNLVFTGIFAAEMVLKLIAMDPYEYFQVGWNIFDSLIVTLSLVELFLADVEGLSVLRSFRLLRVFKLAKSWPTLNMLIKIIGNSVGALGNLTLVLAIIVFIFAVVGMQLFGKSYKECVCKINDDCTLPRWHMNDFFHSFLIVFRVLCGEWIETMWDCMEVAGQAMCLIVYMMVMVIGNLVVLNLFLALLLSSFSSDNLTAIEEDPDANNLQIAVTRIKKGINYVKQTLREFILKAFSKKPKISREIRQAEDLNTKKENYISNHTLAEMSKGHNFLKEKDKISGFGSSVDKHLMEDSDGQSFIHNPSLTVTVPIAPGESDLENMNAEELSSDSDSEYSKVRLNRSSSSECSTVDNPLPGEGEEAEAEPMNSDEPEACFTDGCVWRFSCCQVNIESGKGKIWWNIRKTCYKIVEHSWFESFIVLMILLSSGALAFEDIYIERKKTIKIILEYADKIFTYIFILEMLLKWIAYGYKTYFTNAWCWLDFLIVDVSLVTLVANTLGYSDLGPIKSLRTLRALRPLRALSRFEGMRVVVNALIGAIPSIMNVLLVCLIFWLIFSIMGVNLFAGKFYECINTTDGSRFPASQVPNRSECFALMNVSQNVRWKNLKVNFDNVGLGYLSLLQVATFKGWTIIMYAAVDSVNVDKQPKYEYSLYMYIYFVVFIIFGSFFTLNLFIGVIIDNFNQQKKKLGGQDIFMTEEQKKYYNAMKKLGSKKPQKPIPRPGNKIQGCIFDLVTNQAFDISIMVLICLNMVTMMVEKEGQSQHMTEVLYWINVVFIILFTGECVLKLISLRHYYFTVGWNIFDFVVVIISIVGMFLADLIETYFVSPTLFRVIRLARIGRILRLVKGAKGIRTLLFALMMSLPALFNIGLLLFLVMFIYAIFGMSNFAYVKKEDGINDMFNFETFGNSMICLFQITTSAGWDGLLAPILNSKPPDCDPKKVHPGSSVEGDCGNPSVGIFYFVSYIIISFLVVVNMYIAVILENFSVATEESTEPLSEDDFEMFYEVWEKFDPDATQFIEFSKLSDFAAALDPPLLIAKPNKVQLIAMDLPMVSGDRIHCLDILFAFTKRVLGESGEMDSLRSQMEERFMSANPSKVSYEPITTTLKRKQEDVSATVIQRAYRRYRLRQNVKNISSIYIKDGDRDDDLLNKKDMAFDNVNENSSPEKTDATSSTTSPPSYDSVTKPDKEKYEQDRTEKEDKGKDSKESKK
# assay.comment: Selectivity test for Nav ion channel subtypes: NaV1.7 (CHO cells, patch clamp)
# Format: cell-based
# experimental.context: 1 uM
metric.name: Inhibition ratio on Nav1.7

Output Inhibition ratio on Nav1.7 of Cc1cc(F)ccc1Oc1cc(C2CC2)c(C(F)(F)F)cc1C(=O)Nc1ccc(F)c(OC[C@H](O)CNC(=O)CO)c1
<1%

Output Inhibition ratio on Nav1.7 of Cc1cc(F)ccc1Oc1cc(C(F)(F)F)c(Cl)cc1C(=O)Nc1ccc(F)c(OC[C@H](O)CNC(=O)CO)c1
<1%

Output Inhibition ratio on Nav1.7 of Cc1cc(F)ccc1Oc1cc(C(F)(F)F)ccc1C(=O)Nc1ccn(COP(=O)(O)O)c(=O)c1 [VX-150, reference compound]
8.7%

Output Inhibition ratio on Nav1.7 of Cc1cc(F)ccc1Oc1cc(C(F)(F)F)c(Cl)cc1C(=O)Nc1cnnc(OC[C@H](O)CO)c1
<1%

Output Inhibition ratio on Nav1.7 of Cc1cc(F)ccc1Oc1cc(C(F)(F)F)c(Cl)cc1C(=O)Nc1ccnc(OC[C@H](O)CO)c1
<1%

Output Inhibition ratio on Nav1.7 of Cc1cc(F)ccc1Oc1cc(C2CC2)c(C(F)(F)F)cc1C(=O)Nc1ccnc(OC[C@H](O)CO)c1
1.3%
